B1: Osa-1-4 twister ribozyme (parent)
chain: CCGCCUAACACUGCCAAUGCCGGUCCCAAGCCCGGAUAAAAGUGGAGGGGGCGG

variants of: B1; assay: self-cleavage, relative activity (ratio to wild type); higher = more cleavage; co-transcriptional
Kindly return true if reported self-cleavage is no lower than 0.08; return false if it is lower.

Is self-cleavage at least 0.08? Consider C25G C52G true

API: above_or_equal(metric=self-cleavage, cutoff=0.08) for item G49C U18G true

Can C14A G51A be said to have self-cleavage at or above 0.08? false

Hello, I need to know if G35C U18A has measured self-cleavage not below 0.08. Thanks! true

Quick check: does C31G G54A have self-cleavage greater than or equal to 0.08? true
